biological target: T1, dGAE (tau 297-391) (human, UniProt P10636 614-708); assay: tau-tau immunoassay: scAb preincubated with 100 nM dGAE; blocked ligand: plate-bound dGA (1000 nM); bound dGAE detected with E2E8
T1 construct: also called dGAE95
T1 sequence (P10636 614-708 limits assumed): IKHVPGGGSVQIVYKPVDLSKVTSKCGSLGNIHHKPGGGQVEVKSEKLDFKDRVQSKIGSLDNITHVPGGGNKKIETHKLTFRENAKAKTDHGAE
Metric: B50
Phrase the answer as number then unit, nothing more needed.

Task: Consider the binder CE3 scAb (scFv, not shown: human C kappa domain and hexa-His tag of the scAb format) scFv: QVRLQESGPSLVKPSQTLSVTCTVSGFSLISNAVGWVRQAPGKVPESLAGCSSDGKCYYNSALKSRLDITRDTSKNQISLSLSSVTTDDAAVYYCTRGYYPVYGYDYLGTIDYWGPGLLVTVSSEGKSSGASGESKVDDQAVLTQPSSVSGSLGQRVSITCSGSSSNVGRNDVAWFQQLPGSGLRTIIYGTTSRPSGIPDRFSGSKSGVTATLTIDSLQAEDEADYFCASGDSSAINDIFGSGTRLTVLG . State its measured B50.
Output: 209 nM

Task: Quickly give me recorded B50 for CA4 scAb (scFv, not shown: human C kappa domain and hexa-His tag of the scAb format) scFv: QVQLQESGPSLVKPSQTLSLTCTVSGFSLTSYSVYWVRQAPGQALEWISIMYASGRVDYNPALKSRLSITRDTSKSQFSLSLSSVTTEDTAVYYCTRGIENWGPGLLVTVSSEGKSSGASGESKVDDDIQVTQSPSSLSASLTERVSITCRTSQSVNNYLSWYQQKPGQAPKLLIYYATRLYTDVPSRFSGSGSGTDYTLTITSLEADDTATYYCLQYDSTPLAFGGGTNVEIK
Output: 221 nM

Task: Answer with reported B50 of S1B1 scAb (scFv, not shown: human C kappa domain and hexa-His tag of the scAb format) scFv: QVQLQESGPSLVKPSQTLSLTCTVSGFSLSSNSVGWVRQAPGKAPEWVAGIDTDGEEGYNPALNSRLSITRDTSKSQVSLSLSSVTSEDTAVYYCVRSYRTDGLAYGYVQAIDYWGPGLLVTVSSEGKSSGASGESKVDDQAVLTQPSSVSGSLGQRVSITCSGSFIGISSVGWFQQLPGSGLRTVIVASDGRPSGVPDRFSNSKSGNTATLTISSLQAEDEADYFCGSSDRTQYTGVFGSGTRLTVLG
Output: 101 nM

Task: Identify B50 associated with the binder S1D9 scAb (scFv, not shown: human C kappa domain and hexa-His tag of the scAb format) scFv: QVQLQESGPSLVKPSQTLSLTCTVSGFSLTSNSVGWVRQAPGKAPEWVAGIDSDGEEGYNPALNSRLSITRDTSKNQVSLSLSRVTSEDTAVYYCGRTYRTDGYAYGYVQAIDYWGPGLLVTVSSEGKSSGASGESKVDDRVMLTQPPSVSGSPGQTVSITCSGSFIGISSVGWFQQLPGSGLRTVIFASDGRPSGVPDRFSNSKSGNTATLTISSLQAEDEADYFCGSSDRTQYTGVFGSGTRLTVLS
Output: 107 nM

Task: Give a short answer stating reported B50 for S2C6 scAb (scFv, not shown: human C kappa domain and hexa-His tag of the scAb format) scFv: QVQLQESGPSLVKPSQTLSLTCTVSGFSLISNSVGWVRQAPGKAPEWVAGIDTDGEEGYNPALKSQYAASDPDTSKSQVSLSLSSVTSEDTAVYYCGRTYRTDGFAYGYVQAIDYWGPGLLLTISSEGKSSGASGESKVDDQAVLTQPSSVSGSLGQRVSITCSGSFIGISSVGWFQQLPGSGLRTIIVASDGRPSGVPDRFSMSKSGNTATLTISSLQAEDEADYFCGSSDRTQYTGVFGSGTRLTVLG .
Output: 51 nM
